- Species: Rattus norvegicus
- ASSAY: Open TG-GATES - Regimen: Daily Repeat
- Format: toxicity, organism-based, Sprague-Dawley
- Design: regimen Daily Repeat, gender Male, age 6 weeks
- CONDITION_DETAILS: in vivo, po, 100 mg/kg, […], tissue Blood, route gavage, dose level Low, time 14 day
Documented Lym across a set of molecules
MEASURED_PROPERTY: Lym (%)

O=C(N[C@H](CO)[C@H](O)c1ccc([N+](=O)[O-])cc1)C(Cl)Cl [CHLORAMPHENICOL]; 78
O=C(O)c1cccnc1 [NIACIN]; 75.2
CC(C)(S)[C@@H](N)C(=O)O [PENICILLAMINE]; 82.4
CCN1CCCC1CNC(=O)c1cc(S(N)(=O)=O)ccc1OC (centres undefined) [SULPIRIDE]; 75.2

* * *

- Species: Rattus norvegicus
- ASSAY: Open TG-GATES - Regimen: Single
- Type: toxicity, organism-based, Sprague-Dawley
- Parameters: regimen Single, gender Male, age 6 weeks
- CONDITION_DETAILS: in vivo, po, 0 mg/kg, 3 h, tissue Blood, route gavage, dose level Control
Documented Eos across a set of compounds
MEASURED_PROPERTY: Eos (%)

C[C@](N)(Cc1ccc(O)c(O)c1)C(=O)O [METHYLDOPA]; 0.8
CCC(C)(C)C(=O)O[C@H]1C[C@@H](C)C=C2C=C[C@H](C)[C@H](CC[C@@H]3C[C@@H](O)CC(=O)O3)[C@H]21 [SIMVASTATIN]; 1
CN1C(=O)OC(C)(C)C1=O [TRIMETHADIONE]; 0.8
C#C[C@]1(O)CC[C@H]2[C@@H]3CCc4cc(O)ccc4[C@H]3CC[C@@]21C [ETHINYL ESTRADIOL]; 0.8
CC(C)(S)[C@@H](N)C(=O)O [PENICILLAMINE]; 1
CCSCC[C@H](N)C(=O)O [ETHIONINE]; 1
Nc1nc(N)c2nc(-c3ccccc3)c(N)nc2n1; 1
CCc1oc2ccccc2c1C(=O)c1cc(I)c(O)c(I)c1 [BENZIODARONE]; 0.4
O=C(N[C@H](CO)[C@H](O)c1ccc([N+](=O)[O-])cc1)C(Cl)Cl [CHLORAMPHENICOL]; 1
Oc1ncnc2[nH]ncc12 [ALLOPURINOL]; 0.8
CC(=O)Oc1cc(C(C)C)c(OCCN(C)C)cc1C [MOXISYLYTE]; 1
O=C(O)c1cccnc1 [NIACIN]; 0.8
C[C@]12CCC(=O)C=C1CC[C@@H]1[C@@H]2CC[C@@]2(C)[C@H]1CC[C@]2(C)O [METHYLTESTOSTERONE]; 1
CCN1CCCC1CNC(=O)c1cc(S(N)(=O)=O)ccc1OC (stereo unspecified) [SULPIRIDE]; 0.6
CC(=N)S [THIOACETAMIDE]; 0.6
CC(C)C(=O)Nc1ccc([N+](=O)[O-])c(C(F)(F)F)c1 [FLUTAMIDE]; 1

* * *

- Species on record: Rattus norvegicus
- ASSAY: Open TG-GATES - Regimen: Daily Repeat
- Assay type: toxicity, organism-based, Sprague-Dawley
- Set-up: regimen Daily Repeat, gender Male, age 6 weeks
- CONDITION_DETAILS: in vivo, po, 1000 mg/kg, 72 h, tissue Plasma, route gavage, dose level High, time 3 day
MEASURED_PROPERTY: ALT (IU/L)

O=C(O)c1cccnc1 [NIACIN]; 48.8
CC(C)(S)[C@@H](N)C(=O)O [PENICILLAMINE]; 38
O=C(N[C@H](CO)[C@H](O)c1ccc([N+](=O)[O-])cc1)C(Cl)Cl [CHLORAMPHENICOL]; 41
CCN1CCCC1CNC(=O)c1cc(S(N)(=O)=O)ccc1OC (centres undefined) [SULPIRIDE]; 49.2
